tgt: UniProt:P35354
experimentalDetails: Fast assay for COX-2 activity (PGE2 ELISA)
Assay type: biochemical, human or murine
testContext: fast assay: 10 min pre-incubation at 25° C., reaction stopped after two minutes, pH 7.5
Measured IC50 values are reported for all entries that follow.

// worked examples, IC50 included
O=C(O)C1=Cc2c(ccc3ccccc23)OC1C(F)(F)F (centres unmarked) [Example 63]; 1400 nM
O=C(O)C1=Cc2cccc(Cl)c2OC1C(F)(F)F (centres unmarked) [Example 14]; > 100000 nM
Cc1cc2c(cc1Cl)C=C(C(=O)O)C(C(F)(F)F)S2 (centres unmarked) [Example 152]; < 100 nM
N#Cc1ccc(Oc2cc3c(cc2Cl)C=C(C(=O)O)C(C(F)(F)F)O3)cc1 (centres unmarked) [Example 185]; < 100 nM

Okay, now this compound:
Recorded IC50 for O=C(O)C1=Cc2cc(Br)ccc2OC1C(F)(F)F (centres unmarked) [Example 13] with UniProt:P35354, please?
300 nM
